target: SCRIB_1, Q14160; test: holdup assay; design: key: below the threshold = too weak to quantify, mostly under pKd 3.1 to 4; conditions: plain residues with an end cap or a label only (N-terminal biotin on a linker: ado-ado)
Sequence (Q14160 718-814): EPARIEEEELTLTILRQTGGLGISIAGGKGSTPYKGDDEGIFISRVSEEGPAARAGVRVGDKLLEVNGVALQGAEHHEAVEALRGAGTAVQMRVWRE

| binder | pKd |
| --- | --- |
| QSLNRMEYIV [JAG1, P78504] | below the threshold |
| PRISRSQSEL [CCDC134, Q9H6E4] | below the threshold |
| QKNRKAQEDL [CES3, Q6UWW8] | below the threshold |
